B1: ANKRD40 (parent)
chain: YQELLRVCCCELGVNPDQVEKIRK

- Variants of: B1
- experimentalDetails: protein stability index of a GFP-peptide fusion (GPS, HEK-293T) (PSI 1-6); higher = more stable;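 note: lentivirally expressed fusions sorted by FACS into six bins by GFP to DsRed ratio, PSI derived from sequencing read proportions per bin multiplied by bin number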
- conditionLabel: c terminus: a fixed tail appended
readout: protein stability index

{"columns": ["recordSequence", "readout", "resultValue"],
 "data": [
  ["YYELLRVCCCELGVNPDQVEKIRK [Q2Y]", "protein stability index", 1.86],
  ["YQELLRVCCCELYVNPDQVEKIRK [G13Y]", "protein stability index", 1.05],
  ["YSELLRVCCCELGVNPDQVEKIRK [Q2S]", "protein stability index", 1.57],
  ["YQELLRVCCCELGVNPDQVSKIRK [E20S]", "protein stability index", 1.31],
  ["YQELLRVHCCELGVNPDQVEKIRK [C8H]", "protein stability index", 2.84],
  ["YQELLRVCCFELGVNPDQVEKIRK [C10F]", "protein stability index", 1.68],
  ["YQELLRVCCCELGVSPDQVEKIRK [N15S]", "protein stability index", 2.1],
  ["YQELLRVQCCELGVNPDQVEKIRK [C8Q]", "protein stability index", 3.52],
  ["YQELLRVCCCEAGVNPDQVEKIRK [L12A]", "protein stability index", 1.78],
  ["YQELLRVCCCELGVDPDQVEKIRK [N15D]", "protein stability index", 2.08],
  ["YQELLRVCCCELGVNPDQVEEIRK [K21E]", "protein stability index", 2.4],
  ["YQELLRVCCCSLGVNPDQVEKIRK [E11S]", "protein stability index", 1.22],
  ["YQELARVCCCELGVNPDQVEKIRK [L5A]", "protein stability index", 2.5],
  ["YQELLRICCCELGVNPDQVEKIRK [V7I]", "protein stability index", 2.03],
  ["YQELLRVCCCELGVNPNQVEKIRK [D17N]", "protein stability index", 2.11],
  ["YQELPRVCCCELGVNPDQVEKIRK [L5P]", "protein stability index", 1.75]
]}
